src = patent US11208386B2

Molecular target: PAD1 (Homo sapiens, UniProt Q9ULC6)
Construct: made in house
Sequence (Q9ULC6 whole entry): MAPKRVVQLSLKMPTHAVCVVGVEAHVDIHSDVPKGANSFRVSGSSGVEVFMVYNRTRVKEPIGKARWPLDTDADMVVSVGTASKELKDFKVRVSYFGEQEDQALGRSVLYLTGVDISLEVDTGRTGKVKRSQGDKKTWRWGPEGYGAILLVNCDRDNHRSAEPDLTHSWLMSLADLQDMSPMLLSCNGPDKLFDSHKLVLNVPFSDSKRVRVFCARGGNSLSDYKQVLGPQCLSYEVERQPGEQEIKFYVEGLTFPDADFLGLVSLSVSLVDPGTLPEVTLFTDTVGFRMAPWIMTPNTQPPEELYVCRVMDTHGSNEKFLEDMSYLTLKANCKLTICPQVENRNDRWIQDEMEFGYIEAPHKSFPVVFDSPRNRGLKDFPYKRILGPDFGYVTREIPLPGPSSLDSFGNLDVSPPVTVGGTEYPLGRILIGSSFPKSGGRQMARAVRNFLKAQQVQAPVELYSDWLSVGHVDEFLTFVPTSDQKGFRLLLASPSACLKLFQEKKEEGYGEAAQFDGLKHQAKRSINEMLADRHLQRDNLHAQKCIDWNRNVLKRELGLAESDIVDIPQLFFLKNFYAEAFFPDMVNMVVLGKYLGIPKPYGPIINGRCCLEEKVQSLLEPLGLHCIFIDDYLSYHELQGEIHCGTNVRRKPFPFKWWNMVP
Experiment: Inactivation kinetics, PAD1
Assay type: biochemical
Conditions: a: single kobs determined; b: from a linear fit
Criterion: kinact/KI meeting or surpassing 500 M⁻¹ s⁻¹. Met: criterion met. Not met: criterion not met.

Task: Does the compound N=C(CF)NCCC[C@H](NC(=O)c1ccccc1)c1nc2ccccc2[nH]1 [Compound 5a] have recorded kinact/KI that is 500 M⁻¹ s⁻¹ or more?
Result: criterion not met

Task: Does the compound CC(C)n1c([C@H](CCCNC(=N)CF)NC(=O)c2ccccc2C(=O)O)nc2ccccc21 [Compound 6g] have recorded kinact/KI that is 500 M⁻¹ s⁻¹ or more?
Result: criterion not met

Task: Does the compound COc1cccc2c1nc([C@H](CCCNC(=N)CCl)NC(=O)c1cccc3c1C(=O)NC3)n2C [Compound 7l] have recorded kinact/KI that is 500 M⁻¹ s⁻¹ or more?
Result: criterion met

Task: Does the compound CCN1Cc2cccc(C(=O)N[C@@H](CCCNC(=N)CF)c3nc4ccccc4n3C(C)C)c2C1=O [Compound 8g] have recorded kinact/KI that is 500 M⁻¹ s⁻¹ or more?
Result: criterion not met

Task: Does the compound CCOc1cccc2c1nc([C@H](CCCNC(=N)CF)NC(=O)c1cccc3c1C(=O)NC3)n2C [Compound 7m] have recorded kinact/KI that is 500 M⁻¹ s⁻¹ or more?
Result: criterion met

Task: Does the compound CCN1Cc2cccc(C(=O)N[C@@H](CCCNC(=N)CCl)c3nc4c(OC)cccc4n3CC)c2C1=O [Compound 8v] have recorded kinact/KI that is 500 M⁻¹ s⁻¹ or more?
Result: criterion met

Task: Does the compound CC(C)n1c([C@H](CCCNC(=N)CCl)NC(=O)c2ccccc2C(=O)O)nc2ccccc21 [Compound 6h] have recorded kinact/KI that is 500 M⁻¹ s⁻¹ or more?
Result: criterion met

Task: Does the compound CCn1c([C@H](CCCNC(=N)CCl)NC(=O)c2ccc(-c3ccccc3)cc2)nc2ccccc21 [Compound 5j] have recorded kinact/KI that is 500 M⁻¹ s⁻¹ or more?
Result: criterion not met

Task: Does the compound COc1cccc2c1nc([C@H](CCCNC(=N)CF)NC(=O)c1cccc3c1C(=O)N(C(C)C)C3)n2C [Compound 8q] have recorded kinact/KI that is 500 M⁻¹ s⁻¹ or more?
Result: criterion met

Task: Does the compound CCN1Cc2cccc(C(=O)N[C@@H](CCCNC(=N)CF)c3nc4ccccc4[nH]3)c2C1=O [Compound 8a] have recorded kinact/KI that is 500 M⁻¹ s⁻¹ or more?
Result: criterion met

Task: Does the compound COc1cccc2[nH]c([C@H](CCCNC(=N)CCl)NC(=O)c3cccc4c3C(=O)NC4)nc12 [Compound 7j] have recorded kinact/KI that is 500 M⁻¹ s⁻¹ or more?
Result: criterion met

Task: Does the compound COc1cccc2c1nc([C@H](CCCNC(=N)CCl)NC(=O)c1ccc(-c3ccccc3)cc1)n2C [Compound 5n] have recorded kinact/KI that is 500 M⁻¹ s⁻¹ or more?
Result: criterion met

Task: Does the compound Cn1c([C@H](CCCNC(=N)CF)NC(=O)c2cccc3c2C(=O)NC3)nc2ccccc21 [Compound 7c] have recorded kinact/KI that is 500 M⁻¹ s⁻¹ or more?
Result: criterion met

Task: Does the compound CC(C)n1c([C@H](CCCNC(=N)CCl)NC(=O)c2ccc(-c3ccccc3)cc2)nc2ccccc21 [Compound 5l] have recorded kinact/KI that is 500 M⁻¹ s⁻¹ or more?
Result: criterion not met

Task: Does the compound COc1cccc2c1nc([C@H](CCCNC(=N)CCl)NC(=O)c1cccc3c1C(=O)N(C)C3)n2C [8b′] have recorded kinact/KI that is 500 M⁻¹ s⁻¹ or more?
Result: criterion met

###

Target: PAD1 (Homo sapiens)
Construct: made in house
Test: Inactivation kinetics, PAD1
Assay type: biochemical
Settings: a: single kobs determined; b: from a linear fit
reported property: kinact/KI (M⁻¹ s⁻¹)
Expressed in M⁻¹ s⁻¹, but write only the number.

Task: Field request: kinact/KI | item: N=C(CCl)NCCC[C@H](NC(=O)c1ccc(-c2ccc(F)cc2)cc1)c1nc2cc(F)c(F)cc2[nH]1
Result: 508

Task: Field request: kinact/KI | item: CCn1c([C@H](CCCNC(=N)CF)NC(=O)c2cccc3c2C(=O)NC3)nc2c(OC)cccc21
Result: 998

Task: Field request: kinact/KI | item: N=C(CF)NCCC[C@H](NC(=O)c1ccc(-c2ccc(F)cc2)cc1)c1nc2ccccc2[nH]1
Result: 23.3

Task: Field request: kinact/KI | item: COc1cccc2c1nc([C@H](CCCNC(=N)CF)NC(=O)c1cccc3c1C(=O)N(C1CC1)C3)n2C
Result: 766

###

Molecular target: PAD1 (Homo sapiens)
Construct: made in house
Test: Inactivation kinetics, PAD1
Format: biochemical
Settings: a: single kobs determined; b: from a linear fit
Give kinact/KI for every item shown.
Expressed in M⁻¹ s⁻¹, but write only the number.

Task: Field request: kinact/KI | item: Cn1c([C@H](CCCNC(=N)CCl)NC(=O)c2cccc3c2C(=O)NC3)nc2ccccc21
Result: 2430

Task: Field request: kinact/KI | item: CCN1Cc2cccc(C(=O)N[C@@H](CCCNC(=N)CF)c3nc4ccccc4n3CC)c2C1=O
Result: 402

Task: Field request: kinact/KI | item: Cn1c([C@H](CCCNC(=N)CCl)NC(=O)c2ccc(-c3ccccc3)cc2)nc2ccccc21
Result: 112

Task: Field request: kinact/KI | item: N=C(CF)NCCC[C@H](NC(=O)c1cccc2c1C(=O)NC2)c1nc2ccccc2[nH]1
Result: 1290

Task: Field request: kinact/KI | item: CCn1c([C@H](CCCNC(=N)CCl)NC(=O)c2ccccc2C(=O)O)nc2ccccc21
Result: 785

Task: Field request: kinact/KI | item: COc1cccc2c1nc([C@H](CCCNC(=N)CF)NC(=O)c1ccc(-c3ccccc3)cc1)n2C
Result: 31.2

Task: Field request: kinact/KI | item: CCn1c([C@H](CCCNC(=N)CF)NC(=O)c2ccccc2C(=O)OC(C)(C)C)nc2ccccc21
Result: 15.8

Task: Field request: kinact/KI | item: CCN1Cc2cccc(C(=O)N[C@@H](CCCNC(=N)CF)c3nc4c(OC)cccc4n3CC)c2C1=O
Result: 652

###

Give Fold PAD3 Selectivity for every item shown.
Target: PAD3 (Homo sapiens, UniProt Q9ULW8)
Construct: made in house
Sequence (Q9ULW8 1-664): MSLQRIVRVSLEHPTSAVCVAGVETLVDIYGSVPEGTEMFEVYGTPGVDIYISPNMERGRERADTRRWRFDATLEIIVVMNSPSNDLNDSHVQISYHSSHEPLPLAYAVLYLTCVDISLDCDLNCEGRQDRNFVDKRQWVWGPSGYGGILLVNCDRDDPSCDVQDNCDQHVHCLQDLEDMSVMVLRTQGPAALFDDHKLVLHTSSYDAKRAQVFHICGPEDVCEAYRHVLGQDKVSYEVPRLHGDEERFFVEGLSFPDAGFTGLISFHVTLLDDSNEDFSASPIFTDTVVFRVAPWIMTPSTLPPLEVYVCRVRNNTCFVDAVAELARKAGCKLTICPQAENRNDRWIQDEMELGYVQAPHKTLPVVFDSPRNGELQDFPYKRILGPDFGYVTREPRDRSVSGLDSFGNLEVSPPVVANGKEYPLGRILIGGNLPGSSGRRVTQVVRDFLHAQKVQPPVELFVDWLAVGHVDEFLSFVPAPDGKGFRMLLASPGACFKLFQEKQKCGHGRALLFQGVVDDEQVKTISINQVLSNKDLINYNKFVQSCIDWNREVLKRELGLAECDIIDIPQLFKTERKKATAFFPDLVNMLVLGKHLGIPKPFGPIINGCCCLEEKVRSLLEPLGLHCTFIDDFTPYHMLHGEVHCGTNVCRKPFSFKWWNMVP
Assay: Inactivation kinetics, PAD3
Type: biochemical
Details: kinact/KI relative to least inhibited isozyme (1.0)
Expressed in fold, but write only the number.

Task: Field request: Fold PAD3 Selectivity | item: CCN1Cc2cccc(C(=O)N[C@@H](CCCNC(=N)CF)c3nc4cc(OC)ccc4[nH]3)c2C1=O [Compound 8w]
Result: 3.6

Task: Field request: Fold PAD3 Selectivity | item: CCN1Cc2cccc(C(=O)N[C@@H](CCCNC(=N)CF)c3nc4cc(OC)ccc4n3CC)c2C1=O [Compound 8y]
Result: 2.7

Task: Field request: Fold PAD3 Selectivity | item: CC(C)n1c([C@H](CCCNC(=N)CF)NC(=O)c2ccccc2C(=O)O)nc2ccccc21 [Compound 6g]
Result: 4.4

Task: Field request: Fold PAD3 Selectivity | item: CCN1Cc2cccc(C(=O)N[C@@H](CCCNC(=N)CCl)c3nc4c(OC)cccc4n3C)c2C1=O [Compound 8l]
Result: 1.0

Task: Field request: Fold PAD3 Selectivity | item: CCn1c([C@H](CCCNC(=N)CCl)NC(=O)c2ccccc2C(=O)OC(C)(C)C)nc2ccccc21 [Compound 9d]
Result: 3.6

Task: Field request: Fold PAD3 Selectivity | item: CCOc1cccc2c1nc([C@H](CCCNC(=N)CCl)NC(=O)c1cccc3c1C(=O)NC3)n2C [Compound 7n]
Result: 2.7

Task: Field request: Fold PAD3 Selectivity | item: COc1cccc2[nH]c([C@H](CCCNC(=N)CF)NC(=O)c3cccc4c3C(=O)NC4)nc12 [Compound 7i]
Result: 3.8

Task: Field request: Fold PAD3 Selectivity | item: COc1cccc2c1nc([C@H](CCCNC(=N)CF)NC(=O)c1ccc(-c3ccccc3)cc1)n2C [Compound 5m]
Result: 3.7

Task: Field request: Fold PAD3 Selectivity | item: CCn1c([C@H](CCCNC(=N)CCl)NC(=O)c2ccccc2C(=O)O)nc2ccccc21 [Compound 6f]
Result: 1.0

Task: Field request: Fold PAD3 Selectivity | item: COc1cccc2c1nc([C@H](CCCNC(=N)CF)NC(=O)c1cccc3c1C(=O)N(C1CC1)C3)n2C [Compound 8s]
Result: 1.0

Task: Field request: Fold PAD3 Selectivity | item: CCn1c([C@H](CCCNC(=N)CF)NC(=O)c2cccc3c2C(=O)NC3)nc2ccccc21 [Compound 7e]
Result: 1.0

Task: Field request: Fold PAD3 Selectivity | item: CCN1Cc2cccc(C(=O)N[C@@H](CCCNC(=N)CF)c3nc4c(OC)cccc4n3CC)c2C1=O [Compound 8u]
Result: 2.0

Task: Field request: Fold PAD3 Selectivity | item: N=C(CCl)NCCC[C@H](NC(=O)c1ccc(-c2ccc(F)cc2)cc1)c1nc2cc(F)c(F)cc2[nH]1 [Compound 5t]
Result: 1.3

Task: Field request: Fold PAD3 Selectivity | item: N=C(CF)NCCC[C@H](NC(=O)c1ccc(-c2ccccc2)cc1)c1nc2ccccc2[nH]1 [Compound 5e]
Result: 3.8

Task: Field request: Fold PAD3 Selectivity | item: C#Cc1ccc(-c2ccc(C(=O)N[C@@H](CCCNC(=N)CF)c3nc4ccccc4[nH]3)cc2)cc1 [Compound 5u]
Result: 1.1
